Molecular target: PD-1/PD-L1 (Homo sapiens)
Sequence (Q9NZQ7 19-238 limits assumed): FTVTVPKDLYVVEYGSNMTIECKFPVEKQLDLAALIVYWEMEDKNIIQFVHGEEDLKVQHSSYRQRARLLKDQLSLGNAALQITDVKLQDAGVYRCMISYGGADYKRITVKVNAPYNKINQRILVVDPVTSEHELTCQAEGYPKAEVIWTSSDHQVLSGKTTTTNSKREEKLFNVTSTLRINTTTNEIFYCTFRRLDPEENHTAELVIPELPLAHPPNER
Assay: PD-1/PD-L1 biochemical protein-protein interaction assay (ALPHA)
Conditions: 0.3 nM His tagged PD-L1, 2.5 nM biotinylated Fc-PD-1, 60 minutes at 25° C., read-out: IC50 PD-L1-PD-1 Alpha IC50-mono PD-L1-fcP-D1
The compounds listed here are annotated with their IC50.
property_name: IC50 (nM)

INSERT INTO results (compound, test_value) VALUES
  ('Cn1cc(CN2CC3(CCC(=O)N3)C2)c2ncc(-c3cccc(-c4cccc(-c5cnc6c(CN7CC8(CCC(=O)N8)C7)cn(C)c6n5)c4Cl)c3Cl)nc21 [Example 589]', 0.163),
  ('Cc1c(COc2cc(O)c(CNC[C@@H](O)CC(=O)O)cc2Cl)cccc1-c1cccc(COc2cc(OCc3cncc(C#N)c3)c(CNC[C@@H](O)CC(=O)O)cc2Cl)c1C [Example 67]', 1),
  ('COc1nc(OCc2cccc(-c3cccc(COc4nc(OCc5cncc(C#N)c5)c(CNC[C@@H](O)CC(=O)O)cc4Br)c3C)c2C)c(Br)cc1CNC[C@@H](O)CC(=O)O [Example 586]', 0.836);

###

Target: PD-1/PD-L1 interaction (Homo sapiens, UniProt Q9NZQ7)
Construct: expressed in transfected cells; host or cells: CHO cells (aAPC-PD-L1) co-cultured with Jurkat cells overexpressing PD-1 and an NFAT-luciferase reporter
Sequence (Q9NZQ7 19-290): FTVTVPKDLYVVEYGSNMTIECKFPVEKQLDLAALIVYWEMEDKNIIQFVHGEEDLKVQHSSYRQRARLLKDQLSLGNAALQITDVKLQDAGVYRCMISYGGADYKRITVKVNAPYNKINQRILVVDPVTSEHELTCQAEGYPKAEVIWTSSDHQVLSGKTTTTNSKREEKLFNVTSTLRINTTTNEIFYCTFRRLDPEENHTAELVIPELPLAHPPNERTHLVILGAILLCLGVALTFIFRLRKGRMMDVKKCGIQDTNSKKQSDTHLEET
Assay: PD-1/PD-L1 NFAT reporter co-culture assay
Format: cell-based
Details: Jurkat PD-1 NFAT-luciferase cells co-cultured with aAPC-PD-L1 CHO cells, 6 hrs at 37° C.; read-out: EC50 NFAT Luciferase
Each entry falls into one class according to its EC50; the ranges are low (below 80 nM), medium (80 nM to below 400 nM), high (400 nM or more)

INSERT INTO assay_data (compound, cat) VALUES
  ('COc1nc(OCc2cccc(-c3cccc(COc4nc(OC)c(CN[C@@H](C)C(=O)O)cc4Cl)c3C)c2C)c(Cl)cc1CN[C@@H](C)C(=O)O', 'low'),
  ('Cc1c(COc2nc(OCCC(N)=O)c(CNC[C@@H](O)CC(=O)O)cc2Br)cccc1-c1cccc(COc2nc(OCCC(N)=O)c(CNC[C@@H](O)CC(=O)O)cc2Br)c1C', 'medium'),
  ('Cc1c(COc2nc(OCC(F)(F)F)c(CNC[C@@H](O)CC(=O)O)cc2Br)cccc1-c1cccc(COc2nc(OCC(F)(F)F)c(CNC[C@@H](O)CC(=O)O)cc2Br)c1C', 'high'),
  ('C[C@@](CO)(NCc1cc(Br)c(OCc2cccc(-c3cccc(-c4ccc5c(c4)C[C@@H](N)C5)c3Cl)c2Cl)nc1OCc1cncc(C#N)c1)C(=O)O', 'medium'),
  ('Cc1c(COc2cc(OCc3cncc(C#N)c3)c(CN[C@@H]3CCC[C@@H]3O)cc2Cl)cccc1-c1cccc(-c2ccc3c(c2)CCC3N2CC3(CC(C(=O)O)C3)C2)c1C (stereo partly shown)', 'medium'),
  ('Cc1c(COc2cc(OCc3cncc(C#N)c3)c(CNCCO)cc2Cl)cccc1-c1cccc(COc2cc(OCc3cncc(C#N)c3)c(CNC[C@@H](O)CC(=O)O)cc2Cl)c1C', 'high'),
  ('N#Cc1cncc(COc2nc(OCc3cccc(-c4cccc(COc5nc(OCc6cncc(C#N)c6)c(CNC[C@@H](O)CC(=O)O)cc5Br)c4Cl)c3Cl)c(Br)cc2CNC[C@@H](O)CC(=O)O)c1', 'medium'),
  ('COc1nc(OCc2cccc(-c3cccc(COc4nc(OC)c(CNCCCC(N)=O)cc4Br)c3C)c2C)c(Br)cc1CNCCCC(N)=O', 'high'),
  ('COc1nc(OCc2cccc(-c3cccc(COc4nc(OC)c(CN(CCCC(N)=O)CC(=O)O)cc4Br)c3C)c2C)c(Br)cc1CNCCCC(N)=O', 'high'),
  ('COc1nc(-c2cccc(-c3cccc4c3CC[C@@H]4Oc3nc(OC)c(CN4CC5(CCC(=O)N5)C4)cc3Cl)c2Cl)ccc1CNC[C@@H]1CCC(=O)N1', 'low'),
  ('COc1nc(-c2cccc(-c3cccc4c3CC[C@@H]4Oc3nc(OCC#N)c(CNC[C@@H]4CCC(=O)N4)cc3Cl)c2Cl)ccc1CNC[C@@H]1CCC(=O)N1', 'low'),
  ('Cc1c(COc2ccc(CNC[C@@H](O)CC(=O)O)cc2Cl)cccc1-c1cccc(COc2ccc(CNC[C@@H](O)CC(=O)O)cc2Cl)c1C', 'high'),
  ('COC(=O)[C@@](C)(CO)NCc1cc(Br)c(O[C@H]2CCc3c(-c4cccc(-c5ccc(CNC[C@@H]6CCC(=O)N6)c(OC)n5)c4Cl)cccc32)nc1OCc1cncc(C#N)c1', 'low'),
  ('COC(=O)COc1nc(OCc2cccc(-c3cccc(COc4nc(OCC(=O)OC)c(CNC[C@@H](O)CC(=O)O)cc4Br)c3C)c2C)c(Br)cc1CNC[C@@H](O)CC(=O)O', 'high'),
  ('COc1nc(OCc2cccc(-c3cccc(COc4nc(OC)c(CNC[C@H](O)CC(=O)O)cc4Br)c3Cl)c2Cl)ccc1CNC[C@H](O)CC(=O)O', 'medium'),
  ('COc1nc(-c2cccc(-c3cccc(COc4cc(OCc5cncc(C#N)c5)c(CN[C@@](C)(CO)C(=O)O)cc4Cl)c3C)c2C)ccc1C1=NCCN1', 'low'),
  ('C[C@@](CO)(NCc1cc(Cl)c(O[C@H]2CCc3c(-c4cccc(-c5ccc(OCCNCCO)cc5)c4Cl)cccc32)nc1OCc1cncc(S(C)(=O)=O)c1)C(=O)O', 'medium'),
  ('N#Cc1cc(C#N)cc(COc2nc(OCc3cccc(-c4cccc(-c5ccc(CNC[C@@H]6CCC(=O)N6)cc5)c4Cl)c3Cl)c(Cl)cc2CNC[C@@H](O)CC(=O)O)c1', 'low'),
  ('COc1nc(-c2cccc(-c3cccc4c3CC[C@@H]4Oc3nc(OC)c(CN4CC[C@H](C(=O)O)C4)cc3Cl)c2Cl)ccc1CN1CC2(CCC(=O)N2)C1', 'low'),
  ('COc1nc(OCc2cccc(-c3cccc(COc4nc(OC)c(CNC[C@H](O)CC(=O)O)cc4C4CC4)c3C)c2C)c(C2CC2)cc1CNC[C@H](O)CC(=O)O', 'high'),
  ('Cc1c(COc2cc(OCc3cncc(C#N)c3)c(CNC[C@@H](O)CC(=O)O)cc2Cl)cccc1-c1cccc(-c2nc3ccc(CNC[C@@H](O)CC(=O)O)cc3s2)c1C', 'medium');
